Values compiled from the Immune Epitope Database (IEDB).

Target: HLA-B*57:01
Test: IEDB peptide-MHC binding, purified MHC/direct/fluorescence; filed as Kd, often an IC50 or EC50 that approximates it; bounds were set here for any values at or beyond the usual limits of such assays
Conditions: source organism: Bacillus anthracis
pKd: −log10 of the molar value.
# maps each entry to its pKd

[
  {
    "seq-string": "WFREDRSPV",
    "pKd": "≤ 4.70"
  },
  {
    "seq-string": "MSDIFASEV",
    "pKd": "≤ 4.70"
  }
]

---

Biological target: HLA-B*07:02
Assay: IEDB peptide-MHC binding, purified MHC/direct/fluorescence; filed as Kd, often an IC50 or EC50 that approximates it; bounds were set here for any values at or beyond the usual limits of such assays
Settings: source organism: Corynebacterium efficiens

[
  {
    "seq-string": "ITWETPMIW",
    "subject-of-test": "HLA-B*07:02",
    "Kd": "≥ 20 µM"
  }
]
